Reported inhibition at 5 µM values for the following compounds.
- Tgt: MMP-3 (Homo sapiens, UniProt P08254)
- Construct: Truncated Prostromelysin-257 was expressed in a soluble form in E.coli; made in house; host or cells: E. coli
- Sequence (P08254 100-274 limits assumed): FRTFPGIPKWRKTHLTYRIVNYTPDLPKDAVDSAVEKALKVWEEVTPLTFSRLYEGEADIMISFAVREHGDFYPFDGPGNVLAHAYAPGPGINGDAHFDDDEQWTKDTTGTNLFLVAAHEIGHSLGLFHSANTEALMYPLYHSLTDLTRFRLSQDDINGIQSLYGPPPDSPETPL
- Experiment summary: Automated MMP Profiling Assay, MMP-3 fluorogenic
- Type: biochemical
- Reported conditions: at 5 μM
Property: inhibition at 5 µM (%)

> print(dat)
                                   compound  meas.value
1  CCCCCCOc1ccc(-c2ccc(C(=O)C3CCC=C3C(=O)O)cc2)cc1 (stereo not shown) [Example 443]          20
2  CCCCCOc1ccc(-c2ccc(C(=O)[C@@H]3CC[C@H](Cc4ccccc4)[C@H]3C(=O)O)cc2)cc1 [Example 325]          10
3  O=C(C[C@@H](CCCc1ccccc1)C(=O)O)c1ccc(-c2ccc(OCc3ccccc3)cc2)cc1 [Example 101]          45
4  CC(=O)NC(CC(=O)c1ccc(-c2ccc(Cl)cc2)cc1)C(=O)O (stereo not shown) [Example 430]          28

* * *

- Tgt: MMP-3 (Homo sapiens, UniProt P08254)
- Construct: Truncated Prostromelysin-257 was expressed in a soluble form in E.coli; made in house; host or cells: E. coli
- Experiment summary: Automated MMP Profiling Assay, MMP-3 fluorogenic
- Assay type: biochemical
- Reported conditions: 96-well automated, P218
Reported log10 of IC50 values for the following compounds.
Property: log10 of IC50 (log10 of the value in µM)

> print(dat)
                                    compound  meas.value
 1  CC(C)(C)OC(=O)Nc1ccc(-c2ccc(C(=O)CC(CCc3ccccc3)C(=O)O)cc2)cc1 (centres unmarked)       -0.04
 2  CCN(CC)C(=O)c1cccc(CCC(CC(=O)c2ccc(-c3ccc(OCc4ccccc4)cc3)cc2)C(=O)O)c1 (centres unmarked)       -1.89
 3  O=C(CC(CCN1C(=O)c2cc(Cl)c(Cl)cc2C1=O)C(=O)O)c1ccc(-c2ccc(Cl)cc2)cc1 (centres unmarked)       -1.92
 4  O=C(O)[C@H]1[C@H](CSc2nc3ccccc3o2)CC[C@@H]1C(=O)c1ccc(-c2ccc(Cl)cc2)cc1 (relative stereo)       -0.89
 5  O=C(O)[C@@H]1[C@@H](CN2C(=O)c3ccccc3C2=O)CC[C@H]1C(=O)c1ccc(-c2ccc(Cl)cc2)cc1       -0.37
 6  COC(=O)c1cccc(SCC(CC(=O)c2ccc(-c3ccc(Cl)cc3)cc2)C(=O)O)c1 (centres unmarked)        0.20
 7  O=C(O)[C@H]1[C@H](CN2C(=O)c3cc(Cl)c([N+](=O)[O-])cc3C2=O)CC[C@@H]1C(=O)c1ccc(-c2ccc(Cl)cc2)cc1 (relative stereo)       -2.00
 8  CC(C)CCOc1ccc(-c2ccc(C(=O)CC(CCCc3ccccc3)C(=O)O)cc2)cc1 (centres unmarked)       -0.63
 9  O=C(C[C@H](CCCc1ccccc1)C(=O)O)c1ccc(-c2ccc(Cl)cc2)cc1       -0.86
10  Cc1cccc(C(=O)OC[C@@H]2CC[C@H](C(=O)c3ccc(-c4ccc(Cl)cc4)cc3)[C@H]2C(=O)O)c1 (relative stereo)       -1.20
11  O=C(O)[C@@H]1[C@@H](C(=O)c2ccc(-c3ccc(Cl)cc3)cc2)CC[C@H]1Sc1ccccc1 [Example 296]       -1.36
12  O=C(O)[C@@H]1[C@@H](CN2C(=O)c3ccccc3C2=O)OC[C@H]1C(=O)c1ccc(-c2ccc(Cl)cc2)cc1 (relative stereo)       -1.77
13  O=C(CC(CCCc1ccccc1)C(=O)O)c1ccc(-c2ccc(OCc3ccc(C(F)(F)F)cc3)cc2)cc1 (centres unmarked)       -0.90

* * *

- Tgt: MMP-3 (Homo sapiens, UniProt P08254)
- Construct: Truncated Prostromelysin-257 was expressed in a soluble form in E.coli; made in house; host or cells: E. coli
- Experiment summary: Automated MMP Profiling Assay, MMP-3 fluorogenic
- Assay type: biochemical
- Reported conditions: 96-well automated, P218
pIC50: −log10 of the molar value.
Property: pIC50

> print(dat)
                                   molecule                                   tgt  meas.value
1  CC(C)(C)c1ccc2c(c1)C(=O)N(CCC(CC(=O)c1ccc(-c3ccc(Cl)cc3)cc1)C(=O)O)C2=O (stereo not shown) [Example 414]  MMP-3 (Homo sapiens, UniProt P08254)        7.43
2  CCCOc1ccc(-c2ccc(C(=O)CC(CCc3ccccc3)C(=O)O)cc2)cc1 (stereo not shown) [Example 157]  MMP-3 (Homo sapiens, UniProt P08254)        6.95
3  O=C(O)[C@H]1[C@H](CSc2cccs2)CC[C@@H]1C(=O)c1ccc(-c2ccc(Cl)cc2)cc1 (relative stereo) [Example 369]  MMP-3 (Homo sapiens, UniProt P08254)        7.27
4  COc1cc(CCC(CC(=O)c2ccc(-c3ccc(Cl)cc3)cc2)C(=O)O)cc(OC)c1 (stereo not shown) [Example 129]  MMP-3 (Homo sapiens, UniProt P08254)        6.63
5  O=C(OC[C@@H]1CC[C@H](C(=O)c2ccc(-c3ccc(Cl)cc3)cc2)[C@H]1C(=O)O)c1ccccc1 (relative stereo) [Example 367]  MMP-3 (Homo sapiens, UniProt P08254)        7.36
6  O=C(O)[C@@H]1[C@@H](C(=O)c2ccc(-c3ccc(Cl)cc3)cc2)CC[C@H]1SCc1ccccc1 (relative stereo) [Example 441]  MMP-3 (Homo sapiens, UniProt P08254)        7.42
7  O=C(c1ccc(-c2ccc(Cl)cc2)cc1)C1CCC(Sc2ccccc2)C1C(=O)O (stereo not shown) [Example 312]  MMP-3 (Homo sapiens, UniProt P08254)        7.10

* * *

Reported log10 IC50 values for the following molecules.
- Tgt: MMP-3 (Homo sapiens, UniProt P08254)
- Construct: Truncated Prostromelysin-257 was expressed in a soluble form in E.coli; made in house; host or cells: E. coli
- Experiment summary: Secondary P218 Quenched fluorescence Assay for MMP-3 Inhibition
- Type: biochemical
- Reported conditions: P218 substrate, pH 6.5, 25° C.; x (n) = average of n determinations; read-out: MMP-3 Fluorogenic IC50
Property: log10 IC50 (log10 of the value in nM)

> print(dat)
                                   molecule                                   tgt  meas.value
1  CC(C)(C)C(=O)SCC(CC(=O)c1ccc(-c2ccc(Cl)cc2)cc1)C(=O)O (single isomer, unassigned) [Example 194]  MMP-3 (Homo sapiens, UniProt P08254)        1.79
2  COC(=O)c1ccccc1SCC(CC(=O)c1ccc(-c2ccc(Cl)cc2)cc1)C(=O)O (stereo not shown)  MMP-3 (Homo sapiens, UniProt P08254)        1.43
3  CC(C)CC(CC(=O)O)C(=O)c1ccc(-c2ccc(Cl)cc2)cc1 (single isomer, unassigned)  MMP-3 (Homo sapiens, UniProt P08254)        2.68
4  O=C(O)[C@@H]1[C@@H](C(=O)c2ccc(-c3ccc(Cl)cc3)cc2)CC[C@H]1Sc1ccccc1 (relative stereo)  MMP-3 (Homo sapiens, UniProt P08254)        1.15
5  O=C(CC(Cc1ccccc1)C(=O)O)c1ccc(-c2ccc(Cl)cc2)cc1 (stereo not shown)  MMP-3 (Homo sapiens, UniProt P08254)        2.95
6  CC(C)CC(CC(=O)c1ccc(-c2ccc(I)cc2)cc1)C(=O)O (stereo not shown)  MMP-3 (Homo sapiens, UniProt P08254)        2.41
7  CCOC(=O)CCc1ccc(-c2ccc(CCC(CCCc3ccccc3)C(=O)O)cc2)cc1 (stereo not shown)  MMP-3 (Homo sapiens, UniProt P08254)        3.29

* * *

Reported inhibition at 5 µM values for the following compounds.
- Tgt: MMP-2 (Homo sapiens, UniProt P08253)
- Sequence (P08253 110-660): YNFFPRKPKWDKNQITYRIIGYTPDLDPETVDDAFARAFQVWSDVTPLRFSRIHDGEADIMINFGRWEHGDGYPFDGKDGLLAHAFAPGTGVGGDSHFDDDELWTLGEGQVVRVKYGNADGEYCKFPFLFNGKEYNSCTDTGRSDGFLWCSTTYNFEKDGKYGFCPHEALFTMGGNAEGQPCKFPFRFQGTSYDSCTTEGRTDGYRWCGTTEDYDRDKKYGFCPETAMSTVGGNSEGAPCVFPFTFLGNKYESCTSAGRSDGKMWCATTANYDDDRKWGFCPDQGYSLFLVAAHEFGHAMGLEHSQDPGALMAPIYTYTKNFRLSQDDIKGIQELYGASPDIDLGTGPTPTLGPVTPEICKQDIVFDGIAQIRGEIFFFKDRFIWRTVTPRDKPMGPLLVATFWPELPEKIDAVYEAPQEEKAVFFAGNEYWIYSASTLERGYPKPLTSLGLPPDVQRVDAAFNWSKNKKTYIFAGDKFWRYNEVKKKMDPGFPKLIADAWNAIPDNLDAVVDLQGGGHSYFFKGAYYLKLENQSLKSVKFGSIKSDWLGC
- Experiment summary: Automated MMP Profiling Assay, MMP-2 fluorogenic
- Format: biochemical
- Reported conditions: at 5 μM
Property: inhibition at 5 µM (%)

> print(dat)
                                   compound  meas.value
1  CCCCCOc1ccc(-c2ccc(C(=O)C[C@@H](CCCc3ccccc3)C(=O)O)cc2)cc1          40
2  CCCCCCCCCCOc1ccc(-c2ccc(C(=O)CC(CCCc3ccccc3)C(=O)O)cc2)cc1 (stereo not shown)          16
3  CCCCCOc1ccc(-c2ccc(C(=O)[C@H]3CC[C@@H](Sc4ccccc4)[C@@H]3C(=O)O)cc2)cc1 (single isomer, unassigned)          24
4  O=C(CC(CCCc1ccccc1)C(=O)O)c1ccc(-c2ccc(C(=O)O)o2)cc1 (stereo not shown)           0
5  O=C(O)C1=CCCC1C(=O)c1ccc(-c2ccc(Cl)cc2)cc1 (stereo not shown)          24
6  O=C(c1ccc(-c2ccc(Cl)cc2)cc1)[C@@H]1CCN(C(=O)OCc2ccccc2)[C@H]1C(=O)O          31
7  CCCCCCc1ccc(-c2ccc(CCC(CCCc3ccccc3)C(=O)O)cc2)cc1 (stereo not shown)          38
